The reported measurements were obtained from PubChem BioAssay (Tox21).

Target: Estrogen receptor (Homo sapiens) (UniProt P03372)
Sequence (P03372 whole entry, looked up): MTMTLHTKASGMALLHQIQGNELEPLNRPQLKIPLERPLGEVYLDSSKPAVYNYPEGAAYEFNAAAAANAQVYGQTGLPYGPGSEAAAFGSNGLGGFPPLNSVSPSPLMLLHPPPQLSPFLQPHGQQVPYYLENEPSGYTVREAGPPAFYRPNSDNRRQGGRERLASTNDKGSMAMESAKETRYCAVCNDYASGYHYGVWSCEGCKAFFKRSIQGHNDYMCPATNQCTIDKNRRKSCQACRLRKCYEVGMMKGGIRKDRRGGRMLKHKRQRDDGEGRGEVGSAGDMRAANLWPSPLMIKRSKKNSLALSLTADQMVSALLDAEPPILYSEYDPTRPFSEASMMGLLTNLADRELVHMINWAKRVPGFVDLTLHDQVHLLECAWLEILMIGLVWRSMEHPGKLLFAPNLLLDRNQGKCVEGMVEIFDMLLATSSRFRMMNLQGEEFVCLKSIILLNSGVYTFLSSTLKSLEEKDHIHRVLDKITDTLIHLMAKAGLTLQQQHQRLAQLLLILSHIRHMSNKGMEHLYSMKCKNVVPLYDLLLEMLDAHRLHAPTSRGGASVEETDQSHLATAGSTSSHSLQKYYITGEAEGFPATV
Experiment: qHTS assay to identify small molecule agonists of the estrogen receptor alpha (ER-alpha) signaling pathway using the BG1 cell line (AID 743079); further: nearly all actives have a fitted effect of over 20% in size
Settings: BG1Luc4E2 cells, ERE-luciferase agonist, 22 h; series mostly up to 70.3 µM
Inconclusive results are not listed. Activity calls are given as the source filed them. The call rests on the fitted dose curve; in most records, active means well fitted activation curve with a large enough effect in the repeat runs; inconclusive means weak or mixed curves, or effect the other way; inactive means no such curve, though single readings can be large or run the other way.
In this exercise, the only acceptable responses are T = active, F = inactive

I would be grateful if you could indicate the recorded call for "CCN(CC)C(=O)/C(C#N)=C/c1cc(O)c(O)c([N+](=O)[O-])c1" .
F

I would be grateful if you could indicate the recorded call for "CC[C@H]1OC(=O)[C@H](C)[C@@H](O[C@H]2C[C@@](C)(OC)[C@@H](O)[C@H](C)O2)[C@H](C)[C@@H](O[C@@H]2O[C@H](C)C[C@H](N(C)C)[C@H]2O)[C@](C)(O)C[C@@H](C)/C(=N\OCOCCOC)[C@H](C)[C@@H](O)[C@]1(C)O" .
F

I would be grateful if you could indicate the recorded call for "C=Cc1ccc(OC(C)=O)cc1" .
F

I would be grateful if you could indicate the recorded call for "O=C1[C@@H]2[C@H]3CC[C@H](C3)[C@@H]2C(=O)N1CCCCN1CCN(c2ncccn2)CC1" .
F

I would be grateful if you could indicate the recorded call for "CC1=C2[C@@H]([C@H](C)CC[C@H]2/C=C(\C)C(=O)O)[C@H](O)C1" .
F

I would be grateful if you could indicate the recorded call for "O=C(C(=O)c1ccco1)c1ccco1" .
F

I would be grateful if you could indicate the recorded call for "Nc1ccc(NC(=O)c2ccc(N)cc2)cc1" .
F

I would be grateful if you could indicate the recorded call for "COC(=O)c1sccc1S(N)(=O)=O" .
F

I would be grateful if you could indicate the recorded call for "O=C(O)CCS" .
F

I would be grateful if you could indicate the recorded call for "Cc1ccc(S(=O)(=O)NC(=O)NC2CCCCC2)cc1" .
F

I would be grateful if you could indicate the recorded call for "CC(C)COC(=O)COc1cc(Cl)c(Cl)cc1Cl" .
F

I would be grateful if you could indicate the recorded call for "CCCCCCCCCCCCCCN(C)C" .
F

I would be grateful if you could indicate the recorded call for "O=c1[nH]c2cc(C(F)(F)F)c(N3CCOCC3)cc2n(CP(=O)(O)O)c1=O" .
F

I would be grateful if you could indicate the recorded call for CCC(Cl)CC(Cl)C(Cl)C(Cl)C(Cl)C(C)Cl (centres undefined) .
T

I would be grateful if you could indicate the recorded call for "CC(C)CC(O)CC(C)C" .
F

I would be grateful if you could indicate the recorded call for "O=C(O)c1cccc(Oc2ccccc2)c1" .
F

I would be grateful if you could indicate the recorded call for "CC1=CC[C@@H]2C[C@H]1C2(C)C" .
F

I would be grateful if you could indicate the recorded call for "CC(=O)C(=O)CC(C)C" .
T

I would be grateful if you could indicate the recorded call for "O=S(=O)(Cl)c1c(Cl)cccc1Cl" .
F

I would be grateful if you could indicate the recorded call for CC(C)C(O)C(C)(C)CO (centres undefined) .
F

I would be grateful if you could indicate the recorded call for "CC(=O)NNC(C)=O" .
F

I would be grateful if you could indicate the recorded call for "Cc1ccc(NC(=O)N(C)C)cc1NC(=O)N(C)C" .
F

I would be grateful if you could indicate the recorded call for "O=C(/C=C/c1ccc([N+](=O)[O-])cc1)c1ccccc1" .
F

I would be grateful if you could indicate the recorded call for "CS(=O)(=O)c1ccc([C@@H](C[C@H]2CCC(=O)C2)C(=O)Nc2cnccn2)cc1Cl" .
F

----------
Molecular target: Cytochrome P450 3A4 (Homo sapiens) (UniProt P08684)
Sequence (P08684 whole entry, looked up): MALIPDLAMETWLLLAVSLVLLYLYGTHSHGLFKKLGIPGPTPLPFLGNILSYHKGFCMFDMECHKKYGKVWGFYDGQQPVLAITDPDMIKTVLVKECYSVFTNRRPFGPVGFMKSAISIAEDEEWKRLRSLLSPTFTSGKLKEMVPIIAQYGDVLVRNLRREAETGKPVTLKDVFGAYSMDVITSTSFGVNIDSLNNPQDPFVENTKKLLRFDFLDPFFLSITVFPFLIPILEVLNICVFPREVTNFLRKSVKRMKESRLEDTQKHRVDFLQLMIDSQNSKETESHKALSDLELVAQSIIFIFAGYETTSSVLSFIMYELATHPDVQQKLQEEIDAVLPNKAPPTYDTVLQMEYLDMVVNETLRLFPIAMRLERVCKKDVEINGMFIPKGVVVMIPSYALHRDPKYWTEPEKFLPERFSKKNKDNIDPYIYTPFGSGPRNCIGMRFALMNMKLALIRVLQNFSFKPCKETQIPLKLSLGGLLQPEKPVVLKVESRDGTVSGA
Test: Cytochrome P450 Family 3 Subfamily A Member 4 (CYP3A4) small molecule antagonists: luciferase reporter qHTS assay (AID 1671201); further: nearly all actives have a fitted effect of over 50% in size
Conditions: P450-Glo CYP3A4 enzyme, luciferin luminescence, 1 h; series mostly up to 115 µM
Results filed as inconclusive are left out. Active and inactive are the calls of the source. The call rests on the fitted dose curve; in most records, active means well fitted inhibition curve with a large enough effect in the repeat runs; inconclusive means weak or mixed curves; inactive means no such curve, though single readings can be large or run the other way.
In this exercise, the only acceptable responses are active, inactive

I would be grateful if you could indicate the recorded call for "CC12CC3CC(C)(C1)CC(N)(C3)C2" .
inactive

I would be grateful if you could indicate the recorded call for "CNc1c2c(nn1C)CCCC2" .
inactive

I would be grateful if you could indicate the recorded call for "O=C1c2ccccc2C(=O)c2c(O)ccc(O)c21" .
inactive

I would be grateful if you could indicate the recorded call for "Cc1ccc2c(c1[N+](=O)[O-])C(=O)c1ccccc1C2=O" .
active

I would be grateful if you could indicate the recorded call for "CCN(CC)CC(=O)Nc1c(C)cccc1C(=O)OC" .
inactive

I would be grateful if you could indicate the recorded call for "SCCc1cnccn1" .
inactive

I would be grateful if you could indicate the recorded call for "CC(=O)C(=O)CC(C)C" .
inactive

I would be grateful if you could indicate the recorded call for "Nc1c(Cl)cc(Cl)cc1[N+](=O)[O-]" .
inactive

I would be grateful if you could indicate the recorded call for "Oc1cccc2[nH]ccc12" .
inactive

I would be grateful if you could indicate the recorded call for CC(C)(C)NCC(O)COc1cccc2c1C[C@H](O)[C@H](O)C2 (stereo partly specified) .
inactive

I would be grateful if you could indicate the recorded call for "Cc1cc(CCC(=O)OCCOCCOCCOC(=O)CCc2cc(C)c(O)c(C(C)(C)C)c2)cc(C(C)(C)C)c1O" .
active

----------
Experiment: qHTS assay for small molecule agonists of the antioxidant response element (ARE) signaling pathway (AID 743202)
Conditions: HepG2 ARE-bla reporter, beta-lactamase FRET, 16 h; series mostly up to 73.3 µM
Records with an inconclusive call do not appear. The source made the active and inactive calls. Calls come from the whole dose curve; as a rule, active = well fitted activation curve with a large enough effect in the signal ratio in the repeat runs (not every such curve was filed as active); inconclusive = weak or mixed curves, or effect the other way; inactive = no such curve, though single readings can be large or run the other way; the % refers to the signal ratio.
In this exercise, the only acceptable responses are active, inactive

I would be grateful if you could indicate the recorded call for "CCOc1ncc(F)c(=O)[nH]1" .
inactive

I would be grateful if you could indicate the recorded call for "Nc1ccc(N=Nc2ccc(N)cc2)cc1" .
active

I would be grateful if you could indicate the recorded call for "Cc1cc(CCC(=O)OCCOCCOCCOC(=O)CCc2cc(C)c(O)c(C(C)(C)C)c2)cc(C(C)(C)C)c1O" .
inactive

I would be grateful if you could indicate the recorded call for "CC(CO)(CO)C(=O)O" .
inactive

I would be grateful if you could indicate the recorded call for "CC(C)OC(=O)c1ccccc1C(=O)OC(C)C" .
inactive

I would be grateful if you could indicate the recorded call for "CC12CC3CC(C)(C1)CC(N)(C3)C2" .
inactive

I would be grateful if you could indicate the recorded call for "Oc1ccc2c(c1)Cc1ccccc1-2" .
active

I would be grateful if you could indicate the recorded call for "Nc1ccc(NC(=O)c2ccc(N)cc2)cc1" .
inactive

I would be grateful if you could indicate the recorded call for "CC(C)c1ccc(C#N)cc1" .
inactive

I would be grateful if you could indicate the recorded call for "CCN(CC)C(=O)N1CCN(C)CC1" .
inactive

I would be grateful if you could indicate the recorded call for CCOC(=O)C(C)O (stereo not drawn) .
inactive

I would be grateful if you could indicate the recorded call for "CC(=O)C(C)=O" .
inactive

I would be grateful if you could indicate the recorded call for "C=C(C)c1ccccc1" .
inactive

I would be grateful if you could indicate the recorded call for "CCCCOC(=O)CCCCC(=O)OCCCC" .
inactive

I would be grateful if you could indicate the recorded call for "O=C(O)CCCc1c[nH]c2ccccc12" .
inactive

I would be grateful if you could indicate the recorded call for "CCCCCCOC(=O)CCCCC" .
inactive

I would be grateful if you could indicate the recorded call for "O=c1[nH][nH]c(=O)c2cc([N+](=O)[O-])ccc12" .
inactive

I would be grateful if you could indicate the recorded call for "CCOCCC(=O)OCC" .
inactive

I would be grateful if you could indicate the recorded call for "CCC(C)(C)C(=O)O" .
inactive

I would be grateful if you could indicate the recorded call for "O=C1c2ccccc2C(=O)c2c(O)ccc(O)c21" .
active

I would be grateful if you could indicate the recorded call for "Nc1ccc(S(=O)(=O)NCc2ccccc2)cc1" .
inactive

I would be grateful if you could indicate the recorded call for "CC(=O)NNC(C)=O" .
inactive

I would be grateful if you could indicate the recorded call for "Cc1ccc(NC(=O)N(C)C)cc1NC(=O)N(C)C" .
inactive

I would be grateful if you could indicate the recorded call for "CC(=O)OCCC1CCCCC1" .
inactive

I would be grateful if you could indicate the recorded call for "C1CCCCC1" .
inactive

I would be grateful if you could indicate the recorded call for "Cc1ccc2c(c1)CCCN2" .
inactive

I would be grateful if you could indicate the recorded call for "COc1ccc(N)c([N+](=O)[O-])c1" .
inactive

I would be grateful if you could indicate the recorded call for "Cc1oc(=O)oc1COC(=O)[C@@H]1N2C(=O)[C@@H](NC(=O)[C@H](N)c3ccccc3)[C@H]2SC1(C)C" .
inactive
